Target: T1, murine CD22 protein (ACROBiosystems, SI2-M52Ha) (murine, UniProt P35329 22-708)
T1 construct: extracellular domain; also called murine CD22-ECD; murine CD22-ECD-His
T1 sequence (looked up): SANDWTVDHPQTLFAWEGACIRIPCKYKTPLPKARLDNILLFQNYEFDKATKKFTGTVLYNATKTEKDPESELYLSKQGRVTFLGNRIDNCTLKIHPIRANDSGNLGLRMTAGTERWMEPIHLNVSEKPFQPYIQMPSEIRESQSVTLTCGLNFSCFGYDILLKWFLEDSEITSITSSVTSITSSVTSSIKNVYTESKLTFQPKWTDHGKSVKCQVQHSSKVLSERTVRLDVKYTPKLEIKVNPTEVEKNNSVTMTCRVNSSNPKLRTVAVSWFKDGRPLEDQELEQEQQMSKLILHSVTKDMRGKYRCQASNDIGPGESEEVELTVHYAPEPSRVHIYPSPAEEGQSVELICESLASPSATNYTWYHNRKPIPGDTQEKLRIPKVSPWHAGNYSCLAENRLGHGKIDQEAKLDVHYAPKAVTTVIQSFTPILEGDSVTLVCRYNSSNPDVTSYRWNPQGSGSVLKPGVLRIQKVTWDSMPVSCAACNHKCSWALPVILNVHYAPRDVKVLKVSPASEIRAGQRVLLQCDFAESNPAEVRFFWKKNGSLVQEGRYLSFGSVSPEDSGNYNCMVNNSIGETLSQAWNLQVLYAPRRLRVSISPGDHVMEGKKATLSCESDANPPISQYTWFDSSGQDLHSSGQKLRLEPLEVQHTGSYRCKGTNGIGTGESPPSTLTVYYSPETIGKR
Experiment: ELISA, coated murine CD22, 0.1 nM Ab
Procedure: In order to detect the binding activity of CD22 human-murine chimeric antibodies to CD22 protein, the purified human CD22-ECD-His protein obtained in Example 2 was diluted with PBS to a final concentration of 2 μg/mL, and then added to 96-well ELISA plate at 100 μl/well. The plate was sealed with plastic film and incubated overnight at 4° C., the plate was washed 2 times with PBS the next day, and then a blocking solution [PBS+2% (w/w) BSA] was added for blocking at room temperature for 2 hours. […]
metricName: OD450 (OD450)
Numbers only, in OD450.

Example cases with answers are listed next.
{"columns": ["binder", "OD450 [OD450]"],
 "data": [
  ["F1.216.2 human-murine chimeric antibody (antibody, human IgG1, kappa, V domains shown, Chimeric, human IgG1 / kappa) VH: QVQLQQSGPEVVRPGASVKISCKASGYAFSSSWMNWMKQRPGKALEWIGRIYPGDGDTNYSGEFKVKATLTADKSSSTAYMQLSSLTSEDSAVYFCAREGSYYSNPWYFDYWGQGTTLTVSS VL: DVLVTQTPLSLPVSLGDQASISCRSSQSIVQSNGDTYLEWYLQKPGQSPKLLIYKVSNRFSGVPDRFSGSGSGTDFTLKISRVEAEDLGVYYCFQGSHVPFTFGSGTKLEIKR", 0.05],
  ["F2.121.9 human-murine chimeric antibody (antibody, human IgG1, lambda, V domains shown, Chimeric, human IgG1 / lambda) VH: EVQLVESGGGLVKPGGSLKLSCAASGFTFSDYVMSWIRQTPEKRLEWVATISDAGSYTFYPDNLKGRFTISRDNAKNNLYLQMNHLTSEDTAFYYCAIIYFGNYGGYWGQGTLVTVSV VL: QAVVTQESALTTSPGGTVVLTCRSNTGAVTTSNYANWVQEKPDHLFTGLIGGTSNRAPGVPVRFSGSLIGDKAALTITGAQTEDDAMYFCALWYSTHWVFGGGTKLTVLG", 0.05],
  ["F1.172.13 human-murine chimeric antibody (antibody, human IgG1, kappa, V domains shown, Chimeric, human IgG1 / kappa) VH: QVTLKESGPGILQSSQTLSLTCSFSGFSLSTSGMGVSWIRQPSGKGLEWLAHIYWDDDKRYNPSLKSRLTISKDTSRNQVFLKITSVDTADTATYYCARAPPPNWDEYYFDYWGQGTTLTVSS VL: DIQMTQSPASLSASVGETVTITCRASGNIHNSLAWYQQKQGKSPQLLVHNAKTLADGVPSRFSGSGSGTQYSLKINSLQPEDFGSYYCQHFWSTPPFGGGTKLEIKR", 0.05]
]}

Parameter requested: OD450. Apply to each item below.
1. F1.250.16 human-murine chimeric antibody (antibody, human IgG1, kappa, V domains shown, Chimeric, human IgG1 / kappa; VL tied by name) VH: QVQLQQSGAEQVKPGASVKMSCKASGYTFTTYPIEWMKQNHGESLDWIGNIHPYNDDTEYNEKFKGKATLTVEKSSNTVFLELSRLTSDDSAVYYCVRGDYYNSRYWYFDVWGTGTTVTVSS VL: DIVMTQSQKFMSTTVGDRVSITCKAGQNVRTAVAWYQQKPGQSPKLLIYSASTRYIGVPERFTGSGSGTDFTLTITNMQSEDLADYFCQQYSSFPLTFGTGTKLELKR
2. m971-hIgG1 (antibody, V domains shown, Positive control anti-human CD22 antibody; V regions from US 8,591,889 B on human IgG1 constant regions) VH: QVQLQQSGPGLVKPSQTLSLTCAISGDSVSSNSAAWNWIRQSPSRGLEWLGRTYYRSKWYNDYAVSVKSRITINPDTSKNQFSLQLNSVTPEDTAVYYCAREVTGDLEDAFDIWGQGTMVTVSS VL: DIQMTQSPSSLSASVGDRVTITCRASQTIWSYLNWYQQRPGKAPNLLIYAASSLQSGVPSRFSGRGSGTDFTLTISSLQAEDFATYYCQQSYSIPQTFGQGTKLEIKR

1. 0.05
2. 0.07
